# Test system: Yap1 mRNA
# MEASUREMENT NOTES: Antisense inhibition of human Yap1 in A-431 cells by cEt gapmers, single dose (Example 3, RTS36584)
# Type: cell-based
# ASSAY CONDITIONS: Table 8; A-431 cells, 5,000 cells per well, free uptake, 2,000 nM, approximately 48 hours; RTS36584; normalized to RIBOGREEN; Yap1 mRNA relative to untreated control cells
Strand notation (5' to 3'): a small letter for the sugar, then the base; units joined by * are phosphorothioate-linked, units joined directly phosphodiester-linked; [ ] holds rarer units or linkages, { } end groups; capitals alone tell only the bases. k = constrained ethyl (cEt); [5mC] = 5-methylcytosine; d = 2'-deoxy (DNA)
Quick list: YAP1 (% UTC) per entry.
Your answer is read as % UTC, so omit the unit and give the number.

Reference set (3 entries):
Give the measured YAP1 (% UTC) of 958369 (antisense kT*kT*kA*dT*d[5mC]*dT*dA*dG*d[5mC]*dT*dT*dG*dG*kT*kG*kG) [Compound 958369] .
4

State the recorded YAP1 (% UTC) for this entry: 958374 (antisense k[5mC]*kA*kG*dA*dG*dG*dT*dG*d[5mC]*dT*dA*dG*d[5mC]*kT*kG*kG) [Compound 958374]
38

// returns reported YAP1 (% UTC) for input 958396 (antisense kA*kG*kG*d[5mC]*dT*dA*dT*dT*dA*dA*dG*d[5mC]*dT*kG*kT*kT) [Compound 958396]
131

Next:
For the substance shown here, 958405 (antisense kT*kT*kA*dT*dG*dG*dG*dA*dT*dG*dA*dG*dT*kG*k[5mC]*kT) [Compound 958405] , give the reported YAP1 (% UTC).
24

Which YAP1 (% UTC) value is on record for 958404 (antisense kG*k[5mC]*kA*d[5mC]*dA*d[5mC]*dA*dA*d[5mC]*dT*d[5mC]*dA*dG*kA*k[5mC]*kA) [Compound 958404] ?
52

Would you kindly share the measured YAP1 (% UTC) for 958392 (antisense k[5mC]*kT*kA*dT*dG*dA*dG*dT*d[5mC]*dA*dA*d[5mC]*d[5mC]*kT*kG*k[5mC]) [Compound 958392] ?
50

====

# Test system: Yap1 mRNA
# MEASUREMENT NOTES: Inhibition of human Yap1 mRNA in squamous cell carcinoma CAL27 xenograft tumors (Example 28)
# Type: in vivo
# ASSAY CONDITIONS: 15 mg/kg daily for five days, CAL27 xenografts in NCr-Foxn1nu mice, relative to PBS treated
# key: entry, value: Yap1 mRNA in tumors, % UTC
Kindly format the answer as number then unit.

The examples below pair each entry with its known result.
# get_value(readout='Yap1 mRNA in tumors, % UTC', item= 1198605 (GTAATATTGCAATCTG; modified gapmer, further chemistry not given here) [compound 1198605] )
65 % UTC

Find the recorded Yap1 mRNA in tumors, % UTC belonging to 1198872 (TGTATGTCAGAAGAGT; chemically modified gapmer, further chemistry not given here) [compound 1198872] and report it.
55 % UTC

Field request: Yap1 mRNA in tumors, % UTC | item: 1198831 (CACTTTTACATTAGGA; chemically modified gapmer, further chemistry not given here) [compound 1198831]
70 % UTC

New cases:
Look up Yap1 mRNA in tumors, % UTC: 958499 (ATTAGAGTATGTGGCA; 3-10-3 cEt gapmer, further chemistry not given here) [compound 958499]
68 % UTC

Which Yap1 mRNA in tumors, % UTC is reported for this substance? 1076453 (GTAATATTGCAATCTG; 3-10-3 cEt gapmer, further chemistry not given here) [compound 1076453]
69 % UTC
